# tested.on: Full-length glucokinase (beta cell isoform) (Homo sapiens, UniProt P35557)
# Construct: Full-length glucokinase (beta cell isoform) was His-tagged at N-terminus; His tag (N); made in house
# Sequence (P35557 whole entry, species assumed, canonical isoform): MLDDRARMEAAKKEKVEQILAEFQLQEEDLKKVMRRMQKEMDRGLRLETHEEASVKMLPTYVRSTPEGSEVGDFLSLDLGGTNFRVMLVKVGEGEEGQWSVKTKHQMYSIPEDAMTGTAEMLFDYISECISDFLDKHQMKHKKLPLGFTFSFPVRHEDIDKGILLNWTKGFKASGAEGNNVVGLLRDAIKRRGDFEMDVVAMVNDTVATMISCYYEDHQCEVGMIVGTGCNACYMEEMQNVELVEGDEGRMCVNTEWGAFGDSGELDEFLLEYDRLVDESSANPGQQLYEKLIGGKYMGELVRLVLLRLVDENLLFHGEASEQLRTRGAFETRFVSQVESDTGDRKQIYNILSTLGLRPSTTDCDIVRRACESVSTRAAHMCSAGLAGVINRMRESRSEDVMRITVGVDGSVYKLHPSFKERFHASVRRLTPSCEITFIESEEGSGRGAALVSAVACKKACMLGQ
# run.description: Glucokinase biochemical assay (PK/LDH-coupled, NADH depletion at 340 nm): % activation, EC50, % max activation
# condition.info: 10 uM compound; 5 mM glucose; % Activation=(Va/Vo−1)×100; read-out: % Activation at 10 uM
Measured activation at 10 µM of individual entries
Numbers only; they are read as %.

What does the data say about its activation at 10 µM? Entry: Cc1ccc(NC(=O)c2cc(OC(C)C)cc3oc(-c4ccccc4)cc23)nc1
113

Same lookup for Cc1cc2c(Oc3ccc(S(C)(=O)=O)cn3)cc(C(=O)Nc3cnn(C)n3)cc2o1 , please.
140

Same lookup for CC(CN1CCOCC1)Oc1cc(C(=O)Nc2ccn(C)n2)cc2c1CC(C)(C)O2 (stereo not shown) , please.
12

Same lookup for Cn1ccc(NC(=O)c2cc(OCc3cc(O)nc(C4CC4)n3)c3c(c2)OC(C)(C)C3)n1 , please.
143
